Reference source: patent US6803378B2

# system: HIV Integrase (Human immunodeficiency virus type 1 group M subtype B, UniProt P04585)
# Construct: 0.26 ng of recombinant integrase was then incubated with the beads
# assayRemarks: In vitro activity against integrase, Method B (SPA assay)
# Format: biochemical
# statedConditions: read-out: Percent inhibition of HIV Integrase at 70 uM
Assignment: determine reported inhibition at 70 µM for the given compounds.
Give a bare numeral; the unit % is implied.

## Task Give me measured inhibition at 70 µM, please, for this compound: `Cc1cc(CN(C)C(=O)/C=C(\O)C(=O)O)ccc1F`
## Result 99

## Task Give me measured inhibition at 70 µM, please, for this compound: `CN(Cc1ccc2ccccc2c1)C(=O)/C=C(\O)C(=O)O`
## Result 99

## Task Give me measured inhibition at 70 µM, please, for this compound: `CN(Cc1ccccc1Cc1ccccc1)C(=O)/C=C(\O)C(=O)O`
## Result 88

## Task Give me measured inhibition at 70 µM, please, for this compound: `Cc1ccc(CN(C(=O)/C=C(\O)C(=O)O)c2ccc(F)cc2)cc1`
## Result 99

## Task Give me measured inhibition at 70 µM, please, for this compound: `CN(CCC(c1ccc(F)cc1)c1ccc(F)cc1)C(=O)/C=C(\O)C(=O)O`
## Result 90

## Task Give me measured inhibition at 70 µM, please, for this compound: `O=C(O)/C(O)=C/C(=O)N(Cc1ccc2ccccc2c1)c1ccc(Cl)cc1`
## Result 99

## Task Give me measured inhibition at 70 µM, please, for this compound: `COc1ccc(CN(Cc2ccc(F)cc2)C(=O)/C=C(\O)C(=O)O)cc1Cl`
## Result 99
